Please go through the items and note down their inhibition.
Biological target: Aurora kinase A (Homo sapiens) (UniProt O14965);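 note: each reported value is a mean percent inhibition of Aurora-A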
Sequence (whole entry): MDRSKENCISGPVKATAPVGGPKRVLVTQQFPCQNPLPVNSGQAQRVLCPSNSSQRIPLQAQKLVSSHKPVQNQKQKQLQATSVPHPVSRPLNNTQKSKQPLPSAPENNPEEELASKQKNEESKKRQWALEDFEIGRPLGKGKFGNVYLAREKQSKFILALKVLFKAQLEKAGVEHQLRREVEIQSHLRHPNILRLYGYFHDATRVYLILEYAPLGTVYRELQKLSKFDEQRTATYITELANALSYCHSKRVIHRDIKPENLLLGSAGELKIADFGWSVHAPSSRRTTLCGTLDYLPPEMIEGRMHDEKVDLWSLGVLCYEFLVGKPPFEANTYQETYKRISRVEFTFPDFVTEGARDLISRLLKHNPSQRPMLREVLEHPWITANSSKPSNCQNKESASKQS
Conditions: at 0.1 µM
Number only, in %; omit the unit.

Inquiry: Return reported inhibition; argument: O=C(Nc1n[nH]c2nnc(-c3cccnc3)cc12)C1CC1
Reply text: 0.85

Inquiry: Could you share which inhibition value was measured for CC1(C)CC(n2cnc(-c3ccc(F)cc3)c2-c2ccnc(N)n2)CC(C)(C)N1 ?
Reply text: -0.03

Inquiry: Give its inhibition value. Item: CN(c1ccc(NC(=O)NCCN2CCOCC2)cc1)c1ccnc(Nc2ccc(CS(C)(=O)=O)cc2)n1
Reply text: 24.5

Inquiry: Fill in: inhibition of CS(=O)(=O)CCNCc1ccc(-c2ccc3ncnc(Nc4ccc(OCc5ccccc5)cc4)c3c2)o1 is ___
Reply text: 3.51

Inquiry: Param item = CNC(=O)c1sc(-n2cnc3cc(OC)c(OC)cc32)cc1OCc1ccccc1C(F)(F)F ; retrieve measured inhibition.
Reply text: 3.14

Inquiry: What measured inhibition goes with CS(=O)(=O)Nc1ccc(-c2cc(-c3ccccc3)cc(C(N)=O)c2N)cc1 ?
Reply text: 1.29

Inquiry: What value of measured inhibition is listed for COc1cc2c(cc1Nc1nc(Nc3cccc(F)c3C(N)=O)c3cc[nH]c3n1)N(C(=O)CN1CCN(C(C)C)CC1)CC2 ?
Reply text: 0.69

Inquiry: Which inhibition value belongs to NS(=O)(=O)c1ccc(N/N=C2\C(=O)Nc3ccc(C(=O)NCc4ccncc4)cc32)cc1 ?
Reply text: 6.11

Inquiry: Find the recorded inhibition belonging to c1cnn2ncc(-c3ccnc(NCCCN4CCOCC4)n3)c2c1 and report it.
Reply text: 2.65
